Values compiled from ChEMBL document CHEMBL1134173.

- Tested on: Candida albicans
- measurementDescription: In vivo effective dose for antifungal activity on sc administration in female mice infected with 2.5*10e6 cells/mL of Candida albicans at day 14
- Assay type: functional
experimentalEndpoint: ED50

API: value(readout= ED50, system= Candida albicans, query= `OC(Cn1cncn1)(Cn1cncn1)c1ccc(F)cc1F` )
2.4 mg/kg

* * *

Please provide measured ED50 for the entries that follow.
- Tested on: Candida albicans
- measurementDescription: In vivo effective dose for antifungal activity on sc administration in female mice infected with 2.5*10e6 cells/mL of Candida albicans at day 10
- Format: functional
Numbered stars: 1 amine (or outer) side, 2 acyl side, 3 side chain; on linkers, the order of the positions; unused ones are H or OH. Bridge positions count the residues as written; N and C are the ends. Square brackets hold non-standard residues; d marks the D form. Peptide text beside a SMILES is read from it. * marks the point of attachment. hTyr(3S-OH,4S-OH,3'-OSO3H) = N[C@H](C(=O)O)[C@H](O)[C@@H](O)c1ccc(O)c(OS(=O)(=O)O)c1; Orn(4R-OH,5R-OH) = O=C([C@H](C[C@@H](O)[C@@H](O)N[*:3])N[*:1])[*:2]; Orn(4R-OH,5S-OH) = O=C([C@H](C[C@@H](O)[C@H](O)N[*:3])N[*:1])[*:2]; hTyr(3S-OH,4S-OH) = N[C@H](C(=O)O)[C@H](O)[C@@H](O)c1ccc(O)cc1; Pro(3S-OH,4S-Me) = C[C@H]1CN[C@H](C(=O)O)[C@H]1O; Benzoyl(4-octyloxy) = CCCCCCCCOc1ccc(C(=O)*)cc1; Gln(3R-OH) = NC(=O)C[C@@H](O)[C@H](N)C(=O)O; Palmitoyl = CCCCCCCCCCCCCCCC(=O)*; Hyp = O=C(O)[C@@H]1C[C@@H](O)CN1
Answers are plain numbers, in mg/kg.

Answered examples (2):
{"columns": ["molecule", "ED50 [mg/kg]"],
 "data": [
  ["CCCCCCCCOc1ccc(C(=O)N[C@H]2C[C@@H](O)[C@@H](O)NC(=O)[C@@H]3[C@@H](O)[C@@H](C)CN3C(=O)[C@H]([C@@H](C)O)NC(=O)[C@H]([C@H](O)[C@@H](O)c3ccc(O)cc3)NC(=O)[C@@H]3C[C@@H](O)CN3C(=O)[C@H]([C@@H](C)O)NC2=O)cc1 [CILOFUNGIN] ({Benzoyl(4-octyloxy)}-[Orn(4R-OH,5R-OH)]T[Hyp][hTyr(3S-OH,4S-OH)]T[Pro(3S-OH,4S-Me)]; lactam 1-C)", 5],
  ["CCCCCCCCOc1ccc(C(=O)N[C@H]2C[C@@H](O)[C@H](O)NC(=O)[C@@H]3[C@@H](O)[C@@H](C)CN3C(=O)[C@H]([C@H](O)CC(N)=O)NC(=O)[C@H]([C@H](O)[C@@H](O)c3ccc(O)c(OS(=O)(=O)[O-])c3)NC(=O)[C@@H]3C[C@@H](O)CN3C(=O)[C@H]([C@@H](C)O)NC2=O)cc1.[Na+] [FR-131535] ({Benzoyl(4-octyloxy)}-[Orn(4R-OH,5S-OH)]T[Hyp][hTyr(3S-OH,4S-OH,3'-OSO3H)][Gln(3R-OH)][Pro(3S-OH,4S-Me)]; lactam 1-C)", 3]
]}

Moving on to the next molecule.
Please report the recorded ED50 for CCCCCCCCCCCCCCCC(=O)N[C@H]1C[C@@H](O)[C@H](O)NC(=O)[C@@H]2[C@@H](O)[C@@H](C)CN2C(=O)[C@H]([C@H](O)CC(N)=O)NC(=O)[C@H]([C@H](O)[C@@H](O)c2ccc(O)c(OS(=O)(=O)O)c2)NC(=O)[C@@H]2C[C@@H](O)CN2C(=O)[C@H]([C@@H](C)O)NC1=O (Palmitoyl-[Orn(4R-OH,5S-OH)]T[Hyp][hTyr(3S-OH,4S-OH,3'-OSO3H)][Gln(3R-OH)][Pro(3S-OH,4S-Me)]; lactam 1-C) .
1.1
